System: MDA-MB-435 melanoma
Test: NCI-60 one-dose screen, 48 h (100 = growth as untreated, 0 = no growth, -100 = all killed)
Conditions: 10 µM unless noted
Compounds without any hit were thinned out: in the full panel of roughly 83,000, 20% have a hit.
OUTCOME MEASURE: growth (%)
Number only, in %; omit the unit.

Before answering, review these 7 worked examples.
Cn1c2ccccc2c2c3c(c4c5ccccc5[nH]c4c21)C(=O)N(N)C3=O = 57.9
c1ccc2sc(SCCCn3ccnc3)nc2c1 = 97.6
O=c1c(/C=C/c2ccco2)nnc(SCCN2CCOCC2)n1/N=C/c1ccc([N+](=O)[O-])cc1 = 97.4
COc1ccc(C(=O)c2sc3nc4c(c(C(F)(F)F)c3c2N)CN(C(C)=O)CC4)cc1OC = 99.7
C=C1C(=O)O[C@H]2[C@H]1CC/C(Cn1cc(Cn3ccc4cc(Cl)ccc43)nn1)=C\CC[C@@]1(C)O[C@@H]21 = 1.14
CC[C@H](Nc1ncnc(N)c1C(N)=O)c1nc2cccc(NCc3ccc(C(=O)NO)cc3)c2c(=O)n1-c1ccccc1 = 81.8
CC(C)C1=C[C@@]23CC[C@@H]4[C@](C)(CCC[C@@]4(C)C(=O)OCC#CCN4CCCC4)[C@H]2C[C@@H]1[C@H]1C(=O)OC(=O)[C@H]13 = 102

Turning now to a further record.
Enquiry: Fill in the blank: the reported growth of `O=c1c2cccc3c(NC4CCCCC4)ccc(c32)c2nc3ccccc3n12` is ____.
Return: 103

---

Tested on: SW-620 colon
Test: NCI-60 one-dose screen, 48 h (100 = growth as untreated, 0 = no growth, -100 = all killed)
Details: 10 µM unless noted
Protocol: Growth inhibition of the SW-620 human tumor cell line is measured as a screen for anti-cancer activity. Cells are grown in 96 well plates and exposed to the test compound for 48 hours. Compounds are tested at a single concentration, which is 10^-5 M for most compounds. The reported endpoint is percent growth (GI% or GIPRCNT), where numbers from 0 - 100% represent growth inhibition, and numbers from -100% - 0 represent cell death. For example, a value of 40 represents 60% growth inhibition. […]
About 83,000 compounds went through this panel and 20% of them were active in at least one assay; those are over-represented in the sample as a whole.
OUTCOME MEASURE: growth (%)
Number only, in %; omit the unit.

CC/C=C\C[C@H](F)C/C=C1/C(=O)C=C[C@@H]1C/C=C\CCCC(=O)O = 30.9
COc1ccccc1N1CCN(CCn2c(=O)c3c(c4ccccc4n3C)n(C)c2=O)CC1 = 98.9
CCCCCCCCCc1cc(CN2CCCCC2)c(O)c(CN2CCCCC2)c1 = 69.8
COc1ccc2nc3cc(Cl)ccc3c(N3CCN(c4nccc(NCc5ccccc5)n4)CC3)c2c1 = 68
CC(C)c1c(C(=O)Nc2ccccc2)c(-c2ccccc2)c(-c2ccc(F)cc2)n1CC[C@@H]1CC=CC(=O)O1 = -45.1
Oc1ccc2c(=S)cc(-c3ccc(Br)cc3)oc2c1O = 5.25

Enquiry: Fill in the blank: the reported growth of `CN(C)CC(=O)Nc1ccc(Cn2nnc3c2C(=O)c2nnn(Cc4ccc(NC(=O)CN(C)C)cc4)c2C3=O)cc1` is ____.
Return: -27.3

Enquiry: Fill in the blank: the reported growth of `O=[N+]([O-])c1cccc(-c2nc3sccn3c2-c2ccnc(NCCCNS(=O)(=O)c3ccc(F)cc3)n2)c1` is ____.
Return: 18.3

Enquiry: Fill in the blank: the reported growth of `O=C(CN1CCN(c2cc3c(cc2F)c(=O)c(C(=O)O)cn3C2CC2)CC1)Nc1nc(-c2ccc(Cl)cc2)cs1` is ____.
Return: 26.2

---

Tested on: HOP-62 NSCLC
Experiment: NCI-60 one-dose screen, 48 h (100 = growth as untreated, 0 = no growth, -100 = all killed)
Settings: 10 µM unless noted
This is part of a sample that, as a whole, favours compounds with a hit. Of some 83,000 tested, about 20% had one in any assay.
growth reference
Number only, in %; omit the unit.

Before answering, review these 5 worked examples.
COc1ncc(-c2ccc3ncnc(Nc4cccc(Cl)c4)c3c2)cc1NS(C)(=O)=O = 56.6
O=C(CN1CCN(c2cc3c(cc2F)c(=O)c(C(=O)N/N=C/c2ccccc2)cn3C2CC2)CC1)N/N=C\c1ccccc1 = 109
COc1cc(NCCCCN=C(N)NC(N)=NC(C)C)c2ncccc2c1 = 75.3
c1c2c(cc3c1OCO3)Cc1cc3c(cc1Cc1cc4c(cc1C2)OCO4)OCO3 = 109
CC1=C(NCCN2CCCC2)C(=O)c2c(OCc3ccc(C(F)(F)F)cc3)cccc2C1=O = 86.9

Turning now to a further record.
Enquiry: Fill in the blank: the reported growth of `Nc1ccc(N2CCOCC2)cc1` is ____.
Return: 90.8

---

System: HCT-116 colon
Experiment: NCI-60 one-dose screen, 48 h (100 = growth as untreated, 0 = no growth, -100 = all killed)
Settings: 10 µM unless noted
This is part of a sample that, as a whole, favours compounds with a hit. Of some 83,000 tested, about 20% had one in any assay.
Just so you know, the groups by growth go like this: low bin (below 20%), mid bin (20% to below 40%), high bin (40% or more)

CN1CCOCCOCCOc2ccccc2NC(=O)c2nc(cnc2N)-c2ccc(cc2)S1(=O)=O = mid bin
CCCCCN(CCCCC)CCC[C@@H](C)[C@H]1CC[C@H]2[C@@H]3[C@H](OCCCN)C[C@@H]4C[C@H](OCCCN)CC[C@]4(C)[C@H]3C[C@H](OCCCN)[C@]12C = mid bin
CCOC(=O)c1nc(Nc2cc(C)[nH]n2)c2ccccc2n1 = high bin
COc1cccc(-n2cc(-c3nc(Nc4cc(C)[nH]n4)c4ccccc4n3)nn2)c1 = high bin
CCCNc1nc(SC)nc(-c2cccc(N)c2)c1C#N = high bin
C=C1C(=O)O[C@H]2[C@H]1CC/C(Cn1cc(Cc3c[nH]c4ccccc34)nn1)=C\CC[C@@]1(C)O[C@@H]21 = low bin
O=C(C[C@@H](C(=O)NCc1cccc(C(F)(F)F)c1)N1C(=O)[C@@H](N2C(=O)OC[C@@H]2c2ccccc2)[C@H]1/C=C/c1ccccc1)NC1CCN(Cc2ccccc2)CC1 = mid bin
O=C(CCN1CCOCC1)Nc1ccc(Cn2nnc3c2C(=O)c2nnn(Cc4ccc(NC(=O)CCN5CCOCC5)cc4)c2C3=O)cc1 = low bin
COc1cc2c(c(OC)c1OC)-c1ccc(N=NC(N)=S)c(=O)cc1[C@@H](NC(C)=O)CC2 = low bin
O=C(/C=C/c1ccc(B(O)O)cc1)/C=C/c1ccc(B(O)O)cc1 = low bin

Enquiry: In plain terms, what class is `Nc1c(C(=O)Nc2ccccc2Cl)sc2nc3c(cc12)CCCCCC3` ?
Return: low bin

Enquiry: In plain terms, what class is `Cc1ccc2c(c1)C(=O)/C(=C/c1ccc(OCC(=O)c3ccccc3)cc1)O2` ?
Return: high bin

---

Tested on: SF-268 CNS
Assay: NCI-60 one-dose screen, 48 h (100 = growth as untreated, 0 = no growth, -100 = all killed)
Settings: 10 µM unless noted
Procedure: Cells are grown in 96 well plates and exposed to the test compound for 48 hours. Compounds are tested at a single concentration, which is 10^-5 M for most compounds. The reported endpoint is percent growth (GI% or GIPRCNT), where numbers from 0 - 100% represent growth inhibition, and numbers from -100% - 0 represent cell death. For example, a value of 40 represents 60% growth inhibition. A value of 0 means no net growth occurred over the course of the experiment. […]
Compounds without any hit were thinned out: in the full panel of roughly 83,000, 20% have a hit.
growth reference
Number only, in %; omit the unit.

Before answering, review these 3 worked examples.
O=C1c2cccnc2C(=O)c2c1c(C(=O)OCCN1CCCCC1)c1ccccn21 = -19.8
COc1ccc(C2Nc3ccccc3-n3cccc32)cc1 (configuration not stated) = 98.7
O=C1C2CC=CCC2C(=O)N1CNc1ccc(Cl)cc1 (configuration not stated) = 96.9

Enquiry: // lookup growth | system=SF-268 CNS | key= COc1cc(C2CC(=O)Nc3c2cnn3Cc2ccco2)cc2c1OCCO2 (configuration not stated)
Return: 82.5

Enquiry: // lookup growth | system=SF-268 CNS | key= C=C1CC2(OC1=O)C(=O)Nc1ccccc12 (configuration not stated)
Return: 98

Enquiry: // lookup growth | system=SF-268 CNS | key= `CCN(CC)CCCNc1cccc2c(SCc3ccccc3)ccnc12`
Return: 23.9

Enquiry: // lookup growth | system=SF-268 CNS | key= O=C1C=CC(Nc2ccccc2[N+](=O)[O-])C1Nc1ccccc1[N+](=O)[O-] (configuration not stated)
Return: 75.8

Enquiry: // lookup growth | system=SF-268 CNS | key= `CCN(CC)c1ccc(CNc2cc(C)nc3ccc(OC)cc23)cc1`
Return: 72.7

Enquiry: // lookup growth | system=SF-268 CNS | key= `CCN1CCN(Cc2ccc(NC(=O)Nc3nc4ccc(Oc5ccnc(C(=O)NC)c5)cc4s3)cc2C(F)(F)F)CC1`
Return: -47.3

Enquiry: // lookup growth | system=SF-268 CNS | key= Cc1ccc(C2CC3c4ccccc4C2C2CCCCN32)cc1 (configuration not stated)
Return: 90.1

Enquiry: // lookup growth | system=SF-268 CNS | key= `C/C(=C(/c1ccc(O)cc1)c1ccc(OCCN(C)C)cc1)c1ccccc1`
Return: 83.3

Enquiry: // lookup growth | system=SF-268 CNS | key= `O=C(O)c1ccc(=O)[nH]n1`
Return: 125

Enquiry: // lookup growth | system=SF-268 CNS | key= `CN1CCN(Cc2ccc(NC(=O)c3[nH]ncc3Nc3ncnc4sccc34)cc2)CC1`
Return: -3.74

Enquiry: // lookup growth | system=SF-268 CNS | key= COc1ccc(N(Cc2cc(OC)c(OC)c(OC)c2)C2OC(=O)c3ccccc32)cc1 (configuration not stated)
Return: 44

Enquiry: // lookup growth | system=SF-268 CNS | key= CCC(c1ccccc1)C(CC)c1ccc(O)c(O)c1 (configuration not stated)
Return: 92.1
